# testTarget: T1, recombinant human PAD4 (human, UniProt Q9UM07 1-663)
# T1 construct: also called rhPAD4; hPAD4
# T1 sequence (Q9UM07 whole entry): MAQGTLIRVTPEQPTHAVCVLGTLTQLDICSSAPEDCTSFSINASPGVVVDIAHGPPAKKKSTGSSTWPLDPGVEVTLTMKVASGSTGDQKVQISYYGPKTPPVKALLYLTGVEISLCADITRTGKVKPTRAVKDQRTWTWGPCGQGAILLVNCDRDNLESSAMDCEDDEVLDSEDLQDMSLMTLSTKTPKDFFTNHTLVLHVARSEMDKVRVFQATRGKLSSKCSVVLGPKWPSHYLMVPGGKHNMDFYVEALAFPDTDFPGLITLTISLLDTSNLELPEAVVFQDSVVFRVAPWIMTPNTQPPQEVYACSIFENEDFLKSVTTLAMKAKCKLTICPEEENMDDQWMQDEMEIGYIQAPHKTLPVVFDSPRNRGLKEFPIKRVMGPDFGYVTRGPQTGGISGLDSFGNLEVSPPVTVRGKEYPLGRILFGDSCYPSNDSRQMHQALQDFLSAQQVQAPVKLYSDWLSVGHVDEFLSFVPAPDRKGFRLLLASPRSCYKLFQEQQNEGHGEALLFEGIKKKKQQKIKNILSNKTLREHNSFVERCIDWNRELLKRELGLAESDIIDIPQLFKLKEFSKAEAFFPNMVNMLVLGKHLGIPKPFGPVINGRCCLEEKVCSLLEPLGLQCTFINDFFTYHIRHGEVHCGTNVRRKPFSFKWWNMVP
# assayRemarks: SPR 37 C, captured antibody, PAD4 analyte, 1 mM CaCl2
Flag rule - koff less than 0.0002 s⁻¹ flags YES; the remaining entries get NO.

binder	answerLabel
hz20-6 (antibody, V domains shown, light constant region not tied to this antibody) VH: QVQLVQSGAEVKKPGASVKLSCKATGYTFTNYGISWVRQAPGQGLEWIGEIYPRSGNTYHNEKFKDRVTLTADKSSSTAYMEFRSLRSDDTAVYFCARSMITTRYWYFDVWGQGTLVTVSS VL: DIQMTQSPSSLSASVGDRVTITCRASESVDTYGNSFMHWYQQKPGKAPKLLIYLASNLESGVPSRFSGSGSGTDFTLTISSLQPEDFATYYCQQNNEDPLTFGQGTKVEIK	NO
hz20-3 (antibody, V domains shown, light constant region not tied to this antibody) VH: EVQLVQSGAEVKKPGASVKVSCKASGYTFTNYGISWVRQAPGQGLEWMGEIYPRSGNTYHNEKFKDRVTMTADKSTSTAYMELRSLRSDDTAVYFCARSMITTRYWYFDVWGQGTLVTVSS VL: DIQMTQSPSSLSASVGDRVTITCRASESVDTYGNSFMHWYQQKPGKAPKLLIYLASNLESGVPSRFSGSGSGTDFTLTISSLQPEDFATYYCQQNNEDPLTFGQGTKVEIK	NO
hz13-6 (antibody, V domains shown, light constant region not tied to this antibody) VH: EVLLVQSGAEVKKPGASVKLSCTSSDFNIKDHFIHWVRQAPGKGLEWMGRIDPEDDETKYAPKFQDRVTMTADTSTDTAYMELSSLRSEDTAVFYCAGYGNYEGAMDYWGQGTLVTVSS VL: DIVMTQSPSSLSASVGDRVTLTCRASENVNNYGIGFMNWFQQKPGKAPKLLIYAASRRGSGVPSRFSGSGSGTDFTLTISSMQPEDFATYFCQQSKEVPYTFGQGTKLEIK	YES
hz20-13 (antibody, V domains shown, light constant region not tied to this antibody) VH: QVQLVQSGAEVKKPGASVKVSCKASGYTFTNYGISWVRQRPGQGLEWMGEIYPRSGNTYHNEKFKDRVTMTTDKSTSTAYMELRSLRSEDTAVYYCARSMITTRYWYFDVWGKGTTVTVSS VL: DIVMTQSPDSLAVSLGERATINCRASESVDTYGNSFMHWYQQKPGQPPKLLIYLASNLESGVPDRFSGSGSGTDFTLTISSLQAEDVAVYYCQQNNEDPLTFGQGTKLEIK	YES
hz13-5 D31E (antibody, V domains shown, IgG1.3f; also called clone 13-based hz13-5 D31E) VH: EVLLVQSGAEVKKPGASVKLSCTSSDFNIKEHFIHWVRQAPGKGLEWMGRIDPEDDETKYAPKFQDRVTMTADTSTDTAYMELSSLRSEDTAVFYCAGYGNYEGAMDYWGQGTLVTVSS VL: DIQMTQSPSSLSASVGDRVTITCRASENVNNYGIGFMNWFQQKPGKAPKLLIYAASRRGSGVPSRFSGSGSGTDFTLTISSLQPEDFATYFCQQSKEVPYTFGQGTKVEIKR	YES
